Molecular target: Phosphatidylinositol 4-kinase alpha (Homo sapiens)
Sequence (P42356 whole entry): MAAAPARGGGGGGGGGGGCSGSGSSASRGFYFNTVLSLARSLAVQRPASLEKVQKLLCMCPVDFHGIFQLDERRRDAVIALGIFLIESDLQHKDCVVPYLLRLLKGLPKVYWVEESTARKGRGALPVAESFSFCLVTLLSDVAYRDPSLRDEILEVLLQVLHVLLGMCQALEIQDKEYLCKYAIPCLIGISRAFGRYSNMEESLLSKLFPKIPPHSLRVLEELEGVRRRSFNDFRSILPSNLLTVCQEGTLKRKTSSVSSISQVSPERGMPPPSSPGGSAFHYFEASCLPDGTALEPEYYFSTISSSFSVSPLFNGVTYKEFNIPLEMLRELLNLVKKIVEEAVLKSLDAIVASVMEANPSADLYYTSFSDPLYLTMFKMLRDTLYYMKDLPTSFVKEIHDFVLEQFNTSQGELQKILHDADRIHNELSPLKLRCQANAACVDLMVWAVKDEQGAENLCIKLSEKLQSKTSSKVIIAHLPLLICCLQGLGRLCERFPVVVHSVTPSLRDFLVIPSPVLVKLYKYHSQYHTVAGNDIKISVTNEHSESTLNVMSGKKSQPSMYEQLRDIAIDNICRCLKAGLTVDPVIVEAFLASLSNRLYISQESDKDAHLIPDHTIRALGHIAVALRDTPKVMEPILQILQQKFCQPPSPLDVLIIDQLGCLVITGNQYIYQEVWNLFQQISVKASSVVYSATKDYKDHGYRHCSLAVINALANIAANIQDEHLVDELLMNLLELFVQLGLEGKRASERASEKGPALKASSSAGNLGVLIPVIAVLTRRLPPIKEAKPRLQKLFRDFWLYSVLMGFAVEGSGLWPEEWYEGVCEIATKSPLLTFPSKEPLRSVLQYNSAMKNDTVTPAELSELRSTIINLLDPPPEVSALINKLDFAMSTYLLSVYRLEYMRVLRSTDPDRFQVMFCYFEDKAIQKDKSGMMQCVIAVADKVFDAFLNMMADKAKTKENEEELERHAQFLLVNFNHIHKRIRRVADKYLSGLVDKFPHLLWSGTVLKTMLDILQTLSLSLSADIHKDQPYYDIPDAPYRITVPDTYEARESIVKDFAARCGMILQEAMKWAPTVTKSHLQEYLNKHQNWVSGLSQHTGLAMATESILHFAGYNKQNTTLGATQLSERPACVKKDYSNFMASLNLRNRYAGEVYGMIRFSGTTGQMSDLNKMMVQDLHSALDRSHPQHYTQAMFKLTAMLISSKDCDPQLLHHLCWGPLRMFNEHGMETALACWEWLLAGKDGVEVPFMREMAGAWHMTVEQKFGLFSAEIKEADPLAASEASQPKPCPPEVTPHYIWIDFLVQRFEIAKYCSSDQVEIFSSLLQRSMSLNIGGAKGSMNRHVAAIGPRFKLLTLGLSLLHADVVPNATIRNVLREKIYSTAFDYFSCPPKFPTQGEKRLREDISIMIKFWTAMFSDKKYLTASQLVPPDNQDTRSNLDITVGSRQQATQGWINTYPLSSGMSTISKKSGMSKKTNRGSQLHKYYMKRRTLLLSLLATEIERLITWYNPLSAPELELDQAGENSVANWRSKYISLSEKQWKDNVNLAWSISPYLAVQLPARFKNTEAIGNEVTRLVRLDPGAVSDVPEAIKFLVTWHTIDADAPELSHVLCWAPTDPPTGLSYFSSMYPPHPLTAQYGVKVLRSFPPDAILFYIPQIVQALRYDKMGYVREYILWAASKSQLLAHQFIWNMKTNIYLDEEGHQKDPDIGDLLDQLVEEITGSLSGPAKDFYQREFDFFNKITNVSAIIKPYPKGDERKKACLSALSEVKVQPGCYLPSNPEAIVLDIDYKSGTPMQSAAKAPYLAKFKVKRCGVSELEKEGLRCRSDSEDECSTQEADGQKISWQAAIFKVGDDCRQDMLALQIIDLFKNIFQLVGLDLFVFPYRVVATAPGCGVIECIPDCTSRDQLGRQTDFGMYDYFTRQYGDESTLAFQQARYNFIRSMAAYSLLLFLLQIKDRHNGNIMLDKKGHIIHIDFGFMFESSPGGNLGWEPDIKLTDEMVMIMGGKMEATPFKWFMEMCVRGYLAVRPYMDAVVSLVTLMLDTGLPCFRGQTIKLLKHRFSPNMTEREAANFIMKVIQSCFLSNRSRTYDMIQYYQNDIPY
MEASURED_ATTRIBUTE: IC50

Lab note: need IC50 for "CCC(=O)N1CCN(c2ccc(-n3c(=O)ccc4cnc5ccc(-c6cnc7ccccc7c6)cc5c43)cc2C(F)(F)F)CC1" on Phosphatidylinositol 4-kinase alpha (Homo sapiens), anyone have it?
> 10 µM

Data provenance is ChEMBL document CHEMBL1255226.
